B1: CLCN6 (parent)
chain: VGEIVGIITRHNLTYEFLQARLRQ

# Variants of: B1
# Measurement description: protein stability index of a GFP-peptide fusion (GPS, HEK-293T) (PSI 1-6); higher = more stable;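 further: lentivirally expressed fusions sorted by FACS into six bins by GFP to DsRed ratio, PSI derived from sequencing read proportions per bin multiplied by bin number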
# Test conditions: c terminus: a fixed tail appended
Hi, to clarify the labels: Criterion met covers protein stability index from 2 upward, Criterion not met covers anything below 2.

| Mutation label | Assigned label |
| --- | --- |
| V1C | Criterion met |
| Y15K | Criterion not met |
| I4D | Criterion met |
| G6E | Criterion met |
| L18D | Criterion met |
| T9E | Criterion not met |
| N12D | Criterion met |
| L22M | Criterion met |
| G2N | Criterion met |
| I7Q | Criterion met |
| L22P | Criterion not met |
| R23H | Criterion not met |
| R10N | Criterion met |
| V5H | Criterion not met |
| L13F | Criterion met |
| G6T | Criterion met |
| Q24R | Criterion not met |
| I8Y | Criterion not met |
| L18Y | Criterion met |
| V1L | Criterion not met |
| E16P | Criterion not met |
| R21G | Criterion not met |
| G2M | Criterion not met |
| I7E | Criterion met |
| V1T | Criterion not met |
| A20L | Criterion met |
| I7G | Criterion met |
| A20I | Criterion met |
| V1H | Criterion met |
| F17G | Criterion met |
| I8N | Criterion met |
| G6S | Criterion met |
| Q24A | Criterion met |
| E3H | Criterion met |
| I4Y | Criterion met |
| V1S | Criterion met |
| R23Y | Criterion met |
| V5K | Criterion not met |
| V1E | Criterion met |
| I4C | Criterion met |
| E3T | Criterion not met |
| V5Y | Criterion met |
| V5P | Criterion met |
| Y15S | Criterion not met |
| V1A | Criterion not met |
| Y15P | Criterion not met |
| R23P | Criterion not met |
| R23E | Criterion not met |
| I7C | Criterion met |
| L22Y | Criterion met |
| Q19P | Criterion not met |
| V5R | Criterion met |
| L22R | Criterion met |
| I7D | Criterion met |
| N12Q | Criterion met |
| V1G | Criterion not met |
| G2Q | Criterion not met |
| R10T | Criterion met |
| R23Q | Criterion not met |
